Target: Flag/GST-tagged recombinant human B-Raf (Homo sapiens)
Construct: Flag; GST; made in house; host or cells: Sf9 insect cells (B-Raf); E. coli (MEK1-GST)
Sequence (P15056 whole entry): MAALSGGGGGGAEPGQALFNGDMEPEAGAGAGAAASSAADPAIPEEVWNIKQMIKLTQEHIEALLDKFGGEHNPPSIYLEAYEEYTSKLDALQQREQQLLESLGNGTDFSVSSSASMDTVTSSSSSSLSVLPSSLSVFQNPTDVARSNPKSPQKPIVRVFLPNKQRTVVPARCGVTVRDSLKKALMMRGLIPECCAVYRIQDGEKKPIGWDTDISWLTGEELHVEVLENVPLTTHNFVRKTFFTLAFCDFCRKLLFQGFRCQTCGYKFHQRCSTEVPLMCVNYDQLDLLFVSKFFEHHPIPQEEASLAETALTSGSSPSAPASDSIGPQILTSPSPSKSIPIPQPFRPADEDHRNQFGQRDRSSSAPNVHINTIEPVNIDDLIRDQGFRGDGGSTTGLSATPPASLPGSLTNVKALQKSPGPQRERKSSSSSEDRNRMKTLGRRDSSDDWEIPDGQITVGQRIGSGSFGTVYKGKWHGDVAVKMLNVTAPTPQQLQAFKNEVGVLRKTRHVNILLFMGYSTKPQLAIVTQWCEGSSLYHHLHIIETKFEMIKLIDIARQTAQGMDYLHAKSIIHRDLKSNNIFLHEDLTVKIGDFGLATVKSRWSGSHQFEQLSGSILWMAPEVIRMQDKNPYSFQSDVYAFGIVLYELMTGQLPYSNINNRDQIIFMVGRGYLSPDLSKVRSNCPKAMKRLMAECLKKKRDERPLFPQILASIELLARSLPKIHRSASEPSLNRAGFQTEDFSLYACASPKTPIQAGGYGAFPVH
Assay: B-Raf kinase assay (phosphorylation of GST-MEK1, phospho-MEK1 antibody/Europium detection)
Assay type: biochemical
Conditions: B-Raf IC50 Data for compounds of Formula A; read-out: Mean IC50
Counter-ions that a name gives are not always drawn.
test readout: IC50 (nM)

// below: answered molecules
CC(C)(C)OC(=O)N1C[C@@H]2C[C@H]1CN2c1ccc(-c2ccnc3c(-c4ccc(F)c5[nH]ncc45)c(-c4ccncc4)nn23)c(Cl)c1	1
c1cc(-c2c(-c3ccncc3)nn3c(-c4ccc(CN5C[C@@H]6C[C@H]5CN6)cc4)ccnc23)c2cn[nH]c2c1	0.6
CCN1C2CCC1CC(c1ccnc3c(-c4ccc(Cl)c5[nH]ncc45)c(-c4ccncc4)nn13)C2 (stereo not shown) [Example 79, trifluoroacetate salt]	4
CN1C[C@@H]2C[C@H]1CN2c1ccc(-c2ccnc3c(-c4cccc5[nH]ncc45)c(-c4ccncc4)nn23)c(C(F)(F)F)c1	1.4
Oc1cccc(-c2c(-c3ccncc3)nn3c(-c4ccc(N[C@H]5CN6CCC5CC6)nc4)ccnc23)c1	1

I = Fc1ccc(-c2c(-c3ccncc3)nn3c2nccc3[C@H]2CC[C@H](N3CC4CCC(C3)O4)CC2)c2cn[nH]c12 (relative stereo)
II = FC(F)(F)c1cc(-c2ccnc3c(-c4cccc5[nH]ncc45)c(-c4ccncc4)nn23)ccc1N1C[C@@H]2C[C@H]1CN2
Exercise: Just tell me: smaller IC50 value, I or II ? The response must carry the label of the picked entry.
Solution: II

A = CS(=O)(=O)N1C2CCC1CC(c1ccnc3c(-c4ccc(Cl)c(O)c4)c(-c4ccncc4)nn13)C2 (stereo not shown)
B = CN1C[C@@H]2C[C@H]1CN2c1ccc(-c2ccnc3c(-c4ccc(F)c(O)c4)c(-c4ccncc4)nn23)cc1
Exercise: Just tell me: smaller IC50 value, A or B ? The response must carry the label of the picked entry.
Solution: A
(A: 2 nM, B: 150 nM)

----------
Molecular target: Flag/GST-tagged recombinant human B-Raf (Homo sapiens)
Construct: Flag; GST; made in house; host or cells: Sf9 insect cells (B-Raf); E. coli (MEK1-GST)
Experiment: B-Raf kinase assay (phosphorylation of GST-MEK1, phospho-MEK1 antibody/Europium detection)
Type: biochemical
Conditions: B-Raf IC50 Data for compounds of Formula A; read-out: Mean IC50
pIC50: −log10 of the molar value. Where a name gives a salt, the structure may show the parent alone.
test readout: pIC50

// below: answered compounds
c1cc(-c2c(-c3ccncc3)nn3c(C4CCC5(CC4)OCCO5)ccnc23)c2cn[nH]c2c1	8.66
CC(=O)Oc1cc(-c2c(-c3ccncc3)nn3c(C4CC5CCC(C4)N5C(C)=O)ccnc23)ccc1Cl (centres unmarked)	8.00
Fc1ccc(-c2ccnc3c(-c4cccc5[nH]ncc45)c(-c4ccncc4)nn23)c(N2C[C@@H]3C[C@H]2CN3)c1	8.49
CCN1C2CCC1CC(c1ccnc3c(-c4ccc(C(F)(F)F)c5[nH]ncc45)c(-c4ccncc4)nn13)C2 (centres unmarked) [Example 80, trifluoroacetate salt]	7.32

a = CN1C[C@@H]2CC[C@H]1CN2c1ccc(-c2ccnc3c(-c4cccc5[nH]ncc45)c(-c4ccncc4)nn23)c(F)c1
b = COc1cc(-c2c(-c3ccncc3)nn3c(-c4ccc(F)cc4N4C[C@@H]5C[C@H]4CN5)ccnc23)ccc1Cl
c = CN1C[C@@H]2C[C@H]1CN2c1ccc(-c2ccnc3c(-c4cccc5[nH]ncc45)c(-c4ccncc4)nn23)cn1
d = Fc1ccc(-c2c(-c3ccncc3)nn3c2nccc3[C@H]2CC[C@@H](N3C[C@@H]4C[C@H]3CO4)CC2)c2cn[nH]c12
Exercise: Ordering criterion: pIC50; begin with the maximum. Please write the labels in the order that was asked for.
Solution: a, c, d, b

I = Fc1cc(N2C[C@@H]3CC[C@H]2CN3)ccc1-c1ccnc2c(-c3cccc4[nH]ncc34)c(-c3ccncc3)nn12
II = Fc1ccc(-c2c(-c3ccncc3)nn3c2nccc3[C@H]2CC[C@@H](N3CC4CCC(C3)O4)CC2)c2cn[nH]c12 (relative stereo)
Exercise: Just tell me: smaller pIC50 value, I or II ? The response must carry the label of the picked entry.
Solution: II
